Measured values drawn from paper PMC9482650 for this set.

target: MAGI2_3, Q86UL8; assay: holdup assay; parameters: key: below the threshold = too weak to quantify, mostly under pKd 3.1 to 4; details: plain residues with an end cap or a label only (N-terminal biotin on a linker: ahx)
Sequence (Q86UL8 600-682): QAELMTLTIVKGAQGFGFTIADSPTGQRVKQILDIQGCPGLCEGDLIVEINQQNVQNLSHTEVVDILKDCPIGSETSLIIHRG

{"binder": "NRKREIFSNF [NHERF2, Q15599]", "pKd": "below the threshold"}
{"binder": "SDSSGQEYSL [KCTD3, Q9Y597]", "pKd": "below the threshold"}
{"binder": "TVICWPGSLV [LNX2, Q8N448]", "pKd": 3.66}
{"binder": "RRRKRKRTYL [HPV49-L2, P36762]", "pKd": "below the threshold"}
